tested on: SCaBER; assay: cells; conditions: Homo sapiens, read-out: Absolute EC50, growth inhibition
property label: EC50 (µM)
Give just the number in µM; leave the unit off.

[ask] Fill in: EC50 on SCaBER, entry COc1ccc([C@H](C)NC(=O)[C@@H]2C[C@@H](O)CN2C(=O)CNC(=O)c2ccc3cc(F)ccc3n2)c(Cl)c1 [CAM833]
[reply] 47

* * *

test system: HCT116 cells; assay: SRB growth inhibition assay; format: cell-based, human; conditions: Homo sapiens, HCT-116, 96 h, 1 Gy IR, SRB 96 h, Figure 6D (cell line not given)
property label: IC50 (µM)
Report the value in µM with no unit label.

[ask] Return IC50 (reported value) for this compound: COc1ccc([C@H](C)NC(=O)[C@@H]2C[C@@H](O)CN2C(=O)CNC(=O)c2ccc3cc(F)ccc3n2)c(Cl)c1
[reply] 30.4

* * *

system: HCT116; assay: cells; conditions: Homo sapiens, HCT-116, read-out: Absolute EC50, growth inhibition
property label: EC50 (µM)
Number in µM, nothing else.

[ask] Lab note: record EC50 of COc1ccc([C@H](C)NC(=O)[C@@H]2C[C@@H](O)CN2C(=O)CNC(=O)c2ccc3cc(F)ccc3n2)c(Cl)c1 [CAM833] tested on HCT116.
[reply] 63.5

* * *

assay: Microsomal intrinsic clearance; conditions: human, human microsomes
property label: microsomal CLint

[ask] Identify microsomal CLint associated with the molecule COc1ccc([C@H](C)NC(=O)[C@@H]2C[C@@H](O)CN2C(=O)CNC(=O)c2ccc3cc(F)ccc3n2)c(Cl)c1
[reply] 18 µL/min/mg

* * *

assay: Microsomal intrinsic clearance; details: rat, rat microsomes
property label: half-life (min)
Please respond with the number in min and leave the unit unwritten.

[ask] # return recorded half-life for input COc1ccc([C@H](C)NC(=O)[C@@H]2C[C@@H](O)CN2C(=O)CNC(=O)c2ccc3cc(F)ccc3n2)c(Cl)c1
[reply] 47.9

* * *

assay: Caco-2 permeability; type: in vitro ADME; conditions: human, Caco-2
property label: efflux ratio
Output: the number by itself.

[ask] Tell us which efflux ratio value is on record for COc1ccc([C@H](C)NC(=O)[C@@H]2C[C@@H](O)CN2C(=O)CNC(=O)c2ccc3cc(F)ccc3n2)c(Cl)c1 [CAM833]
[reply] 195

* * *

experiment: Mouse iv pharmacokinetics; details: male, CD-1, mouse, in vivo, 1 mg/kg
property label: half-life (h)
Return type: number; implicit unit h.

[ask] Answer with the recorded half-life of COc1ccc([C@H](C)NC(=O)[C@@H]2C[C@@H](O)CN2C(=O)CNC(=O)c2ccc3cc(F)ccc3n2)c(Cl)c1 only.
[reply] 1.44

* * *

test system: HUVEC; experiment: cells; conditions: Homo sapiens, read-out: Absolute EC50, growth inhibition
property label: EC50
Reply with the number and its unit after it.

[ask] Answer with the recorded EC50 of COc1ccc([C@H](C)NC(=O)[C@@H]2C[C@@H](O)CN2C(=O)CNC(=O)c2ccc3cc(F)ccc3n2)c(Cl)c1 only.
[reply] 133 µM

* * *

assay: Mouse iv pharmacokinetics; details: male, CD-1, mouse, in vivo, 1 mg/kg
property label: Vd (L/kg)
Report the figure in L/kg without appending any unit label.

[ask] For the compound COc1ccc([C@H](C)NC(=O)[C@@H]2C[C@@H](O)CN2C(=O)CNC(=O)c2ccc3cc(F)ccc3n2)c(Cl)c1 , give its reported Vd.
[reply] 2.51

* * *

test: Mouse oral screen; details: male, CD-1, mouse, in vivo, 50 mg/kg
property label: bioavailability (%)
Value expressed in %; do not type the unit.

[ask] Please supply the value of reported bioavailability for the item COc1ccc([C@H](C)NC(=O)[C@@H]2C[C@@H](O)CN2C(=O)CNC(=O)c2ccc3cc(F)ccc3n2)c(Cl)c1 [CAM833]
[reply] 44

* * *

experiment: Aqueous solubility; conditions: pH 7.4 buffer, pH 7.4, aqueous buffer, thermodynamic from solid
property label: solubility (µg/mL)
# value in µg/mL; strip the unit string

[ask] Report solubility, nothing else, for this molecule: COc1ccc([C@H](C)NC(=O)[C@@H]2C[C@@H](O)CN2C(=O)CNC(=O)c2ccc3cc(F)ccc3n2)c(Cl)c1
[reply] 7.75

* * *

pIC50: −log10 of the molar value.
property label: pIC50

[ask] Quote pIC50 with test system CYP450 2C9 (Homo sapiens, UniProt P11712) for COc1ccc([C@H](C)NC(=O)[C@@H]2C[C@@H](O)CN2C(=O)CNC(=O)c2ccc3cc(F)ccc3n2)c(Cl)c1
[reply] < 4.60

* * *

tested on: HCT116 cells; assay: SRB growth inhibition assay; assay type: cell-based, human; conditions: Homo sapiens, HCT-116, 96 h, 3 Gy IR, SRB 96 h, Figure 6D (cell line not given)
property label: IC50 (µM)
Report the value in µM with no unit label.

[ask] Find the measured IC50 of COc1ccc([C@H](C)NC(=O)[C@@H]2C[C@@H](O)CN2C(=O)CNC(=O)c2ccc3cc(F)ccc3n2)c(Cl)c1 with HCT116 cells as test system.
[reply] 11.8

* * *

experiment: Microsomal intrinsic clearance; conditions: mouse, mouse microsomes
property label: microsomal CLint (µL/min/mg)
Record the value in µL/min/mg, omitting the unit from your answer.

[ask] Find the measured microsomal CLint of COc1ccc([C@H](C)NC(=O)[C@@H]2C[C@@H](O)CN2C(=O)CNC(=O)c2ccc3cc(F)ccc3n2)c(Cl)c1 and report it.
[reply] 32.2
